Data origin, for the record: paper PMC5431342

Molecular target: ADAM10 (Homo sapiens)
Construct: purchased R&D Systems 936-AD
Sequence (O14672 214-748): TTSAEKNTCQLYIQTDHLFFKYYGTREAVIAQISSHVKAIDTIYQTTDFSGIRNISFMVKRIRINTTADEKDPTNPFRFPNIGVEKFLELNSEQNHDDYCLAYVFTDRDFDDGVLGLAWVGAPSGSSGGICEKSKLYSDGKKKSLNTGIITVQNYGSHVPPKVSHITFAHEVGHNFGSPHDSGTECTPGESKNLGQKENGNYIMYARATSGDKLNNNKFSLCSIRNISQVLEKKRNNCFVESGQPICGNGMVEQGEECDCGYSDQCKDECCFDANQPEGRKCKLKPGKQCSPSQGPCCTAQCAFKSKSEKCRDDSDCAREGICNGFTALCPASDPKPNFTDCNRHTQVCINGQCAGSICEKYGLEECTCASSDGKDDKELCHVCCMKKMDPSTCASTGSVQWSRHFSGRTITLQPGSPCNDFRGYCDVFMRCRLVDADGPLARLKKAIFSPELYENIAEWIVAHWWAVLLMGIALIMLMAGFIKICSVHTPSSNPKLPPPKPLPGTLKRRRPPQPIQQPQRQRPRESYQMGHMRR
Assay: ADAM10 glycosylated substrate uHTS/HTS assay
Format: biochemical
Details: original uHTS dose response, 10-point 1:3 dilutions starting at 70 µM
MEASUREMENT TYPE: IC50 (µM)

(1) O=C1NC(=O)C(Cc2ccc(Cl)cc2)(c2ccccc2)N1 (stereo not shown) [CID 236330]
(2) COc1cccc(C(=O)NNC(=O)C(=O)Nc2ccc(C)c(Cl)c2)c1 [CID 3117694]
Consider entries 1 and 2 . Which has the numerically lower IC50? Please respond with the label that marks your chosen entry.
2
(2: 6.5 µM, 1: 32 µM)
